biological target: DNA-PK phosphorylation at serine 2056 (Homo sapiens (Human), UniProt P78527); assay: DNA-PK phosphorylation at serine 2056 (cellular), bleomycin-treated HCT116 cells, ELISA; type: cell-based; settings: cellular DNA-PK phosphorylation at serine 2056, HCT116; read-out: IC50 pDNA-PK
pIC50: −log10 of the molar value.
MEASURE: pIC50

Enquiry: Specify pIC50 for COc1nccnc1C(C(N)=O)c1cc(-c2ncnc3cc(N4CCOCC4)ccc23)c(F)cc1Cl (stereo not shown) and stop.
Return: 5.30 to 6.30

Enquiry: Specify pIC50 for OC(c1cc(-c2ncnc3cc(N4CCOCC4)ccc23)c(F)cc1F)c1nncc2sccc12 (stereo not shown) and stop.
Return: > 6.30

Enquiry: Specify pIC50 for OC(c1cc(-c2ncnc3cc(N4CCOCC4)ccc23)c(F)cc1F)c1nnc2ccccn12 (stereo not shown) and stop.
Return: 5.30 to 6.30

Enquiry: Specify pIC50 for OC(c1cc(-c2ncnc3cc(N4CCOCC4)ccc23)c(F)cc1F)c1ncnc2ccsc12 (stereo not shown) and stop.
Return: > 6.30

Enquiry: Specify pIC50 for COc1nccnc1C(O)c1cc(-c2ncnc3cc(N4CCOCC4)ccc23)c(F)cc1F (stereo not shown) [Example 454] and stop.
Return: > 6.30

Enquiry: Specify pIC50 for COc1nccnc1C(C(N)=O)c1cc(-c2ncnc3cc(N4CCOCC4)cc(F)c23)c(F)cc1Cl (stereo not shown) and stop.
Return: 5.30 to 6.30

Enquiry: Specify pIC50 for Cn1c(C(O)c2cc(-c3ncnc4cc(N5CCOCC5)ccc34)ccc2Cl)cccc1=O (single isomer, unassigned) [Example 363] and stop.
Return: 5.00 to 5.30

Enquiry: Specify pIC50 for Cc1cnc(C(O)c2ccc(F)c(-c3ncnc4cc(N5CCOCC5)ccc34)c2)c(C)n1 (stereo not shown) and stop.
Return: > 6.30

Enquiry: Specify pIC50 for COc1ccc(C(C(N)=O)c2ccc(F)c(-c3ncnc4cc(N5CCOCC5)ccc34)c2)nn1 (stereo not shown) and stop.
Return: 4.52 to 5.00

Enquiry: Specify pIC50 for OC(c1cc(-c2ncnc3cc(N4CCOCC4)ccc23)ccc1Cl)c1ncncc1F (stereo not shown) [Example 390] and stop.
Return: 5.30 to 6.30

Enquiry: Specify pIC50 for COc1nccnc1C(O)c1cc(-c2ncnc3cc(N4CCOCC4)ccc23)ccc1Cl (stereo not shown) [Example 410] and stop.
Return: > 6.30

Enquiry: Specify pIC50 for Cc1nccnc1C(C(N)=O)c1cc(-c2ncnc3cc(N4CCOCC4)ccc23)c(F)cc1Cl (stereo not shown) and stop.
Return: 5.30 to 6.30

Enquiry: Specify pIC50 for OC(c1ccc(F)c(-c2ncnc3cc(N4CCOCC4)ccc23)c1)c1nncc2sccc12 (stereo not shown) and stop.
Return: > 6.30

Enquiry: Specify pIC50 for OC(c1ccc(F)c(-c2ncnc3cc(N4CCOCC4)ccc23)c1)c1ncnc2ccsc12 (stereo not shown) and stop.
Return: > 6.30

Enquiry: Specify pIC50 for COc1nccnc1[C@@H](O)c1cc(-c2ncnc3cc(N4CCOCC4)ccc23)ccc1Cl and stop.
Return: 5.30 to 6.30

Enquiry: Specify pIC50 for Cc1nccnc1/C(C(=O)O)=C1/C=CC(=O)C(c2ncnc3cc(N4CCOCC4)ccc23)=C1 and stop.
Return: 5.00 to 5.30

###

Please go through the items and note down their IC50.
target: DNA-PK phosphorylation at serine 2056 (Homo sapiens (Human)); assay: DNA-PK phosphorylation at serine 2056 (cellular), bleomycin-treated HCT116 cells, ELISA; format: cell-based; conditions: cellular; HCT116 cells, 10 μM bleomycin, six hours; read-out: IC50 pDNA-PK

Enquiry: Specify IC50 for OC(c1ccc(F)c(-c2ncnc3cc(N4CCOCC4)ccc23)c1)c1ncccc1C(F)(F)F (centres unmarked) and stop.
Return: 0.5 to 5 µM

Enquiry: Specify IC50 for COc1ccc(C(C)(O)c2cc(-c3ncnc4cc(N5CCOCC5)ccc34)c(F)cc2Cl)nn1 (centres unmarked) and stop.
Return: 10 to 30 µM

Enquiry: Specify IC50 for C#Cc1nc(-c2cc(C(O)c3nccs3)ccc2F)c2ccc(N3CCOCC3)cc2n1 (centres unmarked) [Example 215] and stop.
Return: 5 to 10 µM

Enquiry: Specify IC50 for CN(C)CCOc1ccc(C(O)c2ccc(F)c(-c3ncnc4cc(N5CCOCC5)ccc34)c2)nn1 (centres unmarked) and stop.
Return: 5 to 10 µM

Enquiry: Specify IC50 for OC(c1ccc(Cl)nn1)c1cc(-c2ncnc3cc(N4CCOCC4)ccc23)c(F)cc1Cl (centres unmarked) and stop.
Return: < 0.5 µM

Enquiry: Specify IC50 for COc1cc(Cl)nnc1C(O)c1ccc(F)c(-c2ncnc3cc(N4CCOCC4)ccc23)c1 (centres unmarked) and stop.
Return: < 0.5 µM

Enquiry: Specify IC50 for OC(c1ccc(OC2COC2)nn1)c1cc(-c2ncnc3cc(N4CCOCC4)ccc23)c(F)cc1Cl (centres unmarked) and stop.
Return: < 0.5 µM

Enquiry: Specify IC50 for OC(c1cc(-c2ncnc3cc(N4CCOCC4)ccc23)c(F)cc1Cl)c1nccnc1Cl (centres unmarked) and stop.
Return: < 0.5 µM
